Tested on: K-562 leukemia
Experiment: NCI-60 one-dose screen, 48 h
Details: 10 µM unless noted
This is part of a sample that, as a whole, favours compounds with a hit. Of some 83,000 tested, about 20% had one in any assay. Active and inactive are the calls of the source. The calls were made as follows: active = growth percent below 10; inactive = the rest.
Assign a class; possible classes are active, inactive

Field: example entries. Status: answers known.
O=C(Nc1ccc(Cl)cc1F)c1cc(F)ccc1O
active
O=C(Nc1ccc(Cl)cc1)N1CCN(c2ccc3nncn3n2)CC1
active
C=C[C@@H]1CCC/C=C/[C@@H]2C[C@H](O)C[C@H]2[C@H](O)/C=C/C(=O)O1
inactive

Request: Outcome logged for `Nc1ccc(-c2ccc(-c3ccccc3N)c3[nH]c4ccccc4c23)cc1` in this assay:
Result: inactive
